- Test: Apparent permeability from apical to basolateral side in MDCK cells
- Assay type: ADME, cell-based, Canis lupus familiaris
- Protocol Conditions: dog
Result Type: Papp A→B (×10⁻⁶ cm/s)
Output spec: scalar in ×10⁻⁶ cm/s, unitless text.

Ask: Given the entry COc1cc(C(N)=O)nc(-c2cccc(C#C[C@]3(O)CCN(C)C3=O)c2)c1 , report its measured Papp A→B.
Reply: 7.3

----------
- Test: Oral bioavailability in Sprague-Dawley rat at 5 mg/kg via gavage administered as single dose
- Type: ADME, organism-based
- Protocol Conditions: in vivo
Result Type: bioavailability (%)
Output spec: scalar in %, unitless text.

Ask: Given the entry COc1cc(C(N)=O)nc(-c2cccc(C#C[C@]3(O)CCN(C)C3=O)c2)c1 , report its measured bioavailability.
Reply: 97
